Tested on: NCI-H23 lung
Experiment: NCI tumour cell line growth inhibition, 48 h
Reported values of TGI for individual entries
assay.readout: TGI (µM)

[[record]]
molecule = "ClCc1ccccc1Cn1cnc2nc(Cl)nc(Cl)c21"
result_modifier = "="
measured_result = 7.14

[[record]]
molecule = "CCOc1ccc(-c2nc3ccc(-c4nc5ccc(N6CCN(C)CC6)cc5[nH]4)cc3[nH]2)cc1"
result_modifier = "="
measured_result = 1.44

[[record]]
molecule = "O=C(Nc1ccc(I)cc1F)c1cc(Br)ccc1O"
result_modifier = "="
measured_result = 3.34

[[record]]
molecule = "Cc1nc2ccccc2c(=O)n1/N=C(\\N=Nc1ccccc1)c1ccccc1Cl"
result_modifier = ">"
measured_result = 100

[[record]]
molecule = "COc1cc(OCCN(C)C)c2[nH]c(C(=O)N3CC(CCl)c4c3cc(N)c3ccccc43)cc2c1 (stereo not given)"
result_modifier = "<"
measured_result = 0.01

[[record]]
molecule = "CN1CCc2ccccc2C1Cc1ccccc1NC(=O)c1sc2ccccc2c1Cl (stereo not given)"
result_modifier = ">"
measured_result = 100

[[record]]
molecule = "C=CC12CCCCC1CC(C(=O)OC)=C(O)C2 (stereo not given)"
result_modifier = ">"
measured_result = 100

[[record]]
molecule = "O=C1OC(c2ccc(O)cc2)(c2ccc(O)cc2)c2ccc(Cl)c3cccc1c23 (tested in a mixture with another compound)"
result_modifier = "="
measured_result = 31

[[record]]
molecule = "COc1ccc(C)c2sc(N(Cc3cccnc3)C(=O)c3ccc(C#N)cc3)nc12"
result_modifier = ">"
measured_result = 100

[[record]]
molecule = "CC(=O)OC(C(=O)O)C(OC(C)=O)C(OC(C)=O)C(OC(C)=O)C(=O)O (stereo not given)"
result_modifier = ">"
measured_result = 100

[[record]]
molecule = "O=c1[nH]c(-c2ccc(Cl)c(Cl)c2)cn1-c1ccc(Cl)cc1"
result_modifier = "="
measured_result = 37.1

[[record]]
molecule = "CCOC(=O)c1c(NN2CCN(CC(F)(F)F)CC2)oc(/C=C2\\C=Nc3ncccc32)c1O"
result_modifier = "="
measured_result = 21.7

[[record]]
molecule = "CC(C)CC(=O)CC(C)[C@]1(CCCOCc2ccccc2)C(=O)N2CCC3(C[C@@]24CCC[C@H]41)OCCO3 (stereo not given in full)"
result_modifier = ">"
measured_result = 10

[[record]]
molecule = "OCC1OC(N2C=C(c3nc4ccccc4s3)C3C=CC=CC32)C(O)C(O)C1O (stereo not given)"
result_modifier = ">"
measured_result = 50

[[record]]
molecule = "CC(C)[C@@]12C[C@@H](OC(=O)C3CO3)[C@@](C)(O1)[C@@H]1CC[C@@H](C)[C@H]1[C@@H]2OC(=O)/C=C/c1ccccc1 (stereo not given in full)"
result_modifier = "="
measured_result = 53.8

[[record]]
molecule = "O=C(N/C(=C\\c1ccccc1)c1nc2ccccc2c(=O)o1)c1ccccc1"
result_modifier = ">"
measured_result = 100

[[record]]
molecule = "CC(=O)OCC1OC(SC2=N/C(=C\\c3ccc(Br)s3)C(=O)N2c2ccccc2)C(OC(C)=O)C(OC(C)=O)C1OC(C)=O (stereo not given)"
result_modifier = ">"
measured_result = 100

[[record]]
molecule = "Nc1nc(Sc2ccc([N+](=O)[O-])c3nonc23)c2ncn(C3OC(CO)C(O)C3O)c2n1 (stereo not given)"
result_modifier = "="
measured_result = 13.9

[[record]]
molecule = "OCc1ccc(-c2nc(-c3ccc4c(c3)OCO4)c(-c3ccccn3)[nH]2)cc1"
result_modifier = ">"
measured_result = 25

[[record]]
molecule = "O=S(=O)(CC(Cl)c1ccccc1)c1nc2ccccc2s1 (stereo not given)"
result_modifier = "="
measured_result = 25.5

